# Procedure Summary: Hepatic intrinsic clearance following incubation in human liver microsomes
# Format: in vitro ADME
# Experimental Conditions: NADPH regenerating system, 0-30 min, 37 °C
# Protocol: Hepatic Extraction Ratio from Hepatic Intrinsic Clearance Following Incubation in Human Liver Microsomes The general procedure consists of an automated incubation system and LC-MS/MS analysis with human liver microsomes. […] The integrated peak areas for test compounds at the selected time points are divided by the respective peak areas of the IS and the percent of parent remaining is calculated by normalizing the peak area ratio of parent to IS at 0 min. […]
Readout Type: Human in vitro Clint (mL/min/g liver)

Here are 8 molecules together with their reported answers.
Molecule	Unit Label	Human in vitro Clint (mL/min/g liver)
Cc1ccccc1[C@H]1[C@@H]2CC(CCO)(CCO)C(=O)N2CCN1C(=O)N(C)[C@H](CO)c1cc(C(F)(F)F)cc(C(F)(F)F)c1	mL/min/g liver	2.8
Cc1cc([C@@H](C)N(C)C(=O)N2CCN3C(=O)C4(CCOCC4)C[C@H]3[C@@H]2c2ccccc2C)cc(C(F)(F)F)c1	mL/min/g liver	6.9
Cc1ccccc1[C@H]1[C@@H]2CC(CCO)(CCO)C(=O)N2CCN1C(=O)N(C)[C@H](C)c1cc(F)cc(C(F)(F)F)c1	mL/min/g liver	10
Cc1ccccc1C1C2CCCN2CCN1C(=O)N(C)[C@H](C)c1cc(C(F)(F)F)cc(C(F)(F)F)c1 (single isomer, unassigned)	mL/min/g liver	11
Cc1ccccc1[C@H]1[C@@H]2CC(CCO)(CCO)C(=O)N2CCN1C(=O)N(C)[C@@H](C)c1cc(C(F)(F)F)cc(C(F)(F)F)c1	mL/min/g liver	5.4
Cc1ccccc1C1C2CC(CN3CCCC3)C(=O)N2CCN1C(=O)N(C)Cc1cc(C(F)(F)F)cc(C(F)(F)F)c1 (single isomer, unassigned)	mL/min/g liver	2.4
Cc1ccccc1[C@H]1[C@@H]2CC(CCO)(CCO)C(=O)N2CCN1C(=O)N(C)Cc1cc(Cl)cc(C(F)(F)F)c1	mL/min/g liver	14
Cc1ccccc1C1C2CC(CO)C(=O)N2CCN1C(=O)N(C)[C@H](C)c1cc(C(F)(F)F)cc(C(F)(F)F)c1 (single isomer, unassigned) [Compound 55]	mL/min/g liver	2.4

I: Cc1cc([C@@H](C)N(C)C(=O)N2CCN3C(=O)C(CCO)(CCO)C[C@H]3[C@@H]2c2ccccc2C)cc(C(F)(F)F)c1
II: Cc1ccccc1C1C2CC(CN3CCOCC3)C(=O)N2CCN1C(=O)N(C)Cc1cc(C(F)(F)F)cc(C(F)(F)F)c1 (single isomer, unassigned) [Compound 29]
III: Cc1ccccc1C1C2CC(CN3CCOCC3)C(=O)N2CCN1C(=O)N(C)Cc1cc(C(F)(F)F)cc(C(F)(F)F)c1 (single isomer, unassigned) [Compound 50]
With regard to Human in vitro Clint (mL/min/g liver), arrange the entries in ascending order, please. Answer with the labels in sequence, matching the requested order.
III, II, I

---

# Procedure Summary: Hepatic intrinsic clearance following incubation in human liver microsomes
# Type: in vitro ADME
# Experimental Conditions: NADPH regenerating system, 0-30 min, 37 °C
Readout Type: Human in vitro Clint (mL/min/g liver)

Molecule	Readout Type	Reported Result
Cc1ccccc1C1C2CC(CCO)(CCO)CN2CCN1C(=O)N(C)Cc1cc(C(F)(F)F)cc(C(F)(F)F)c1 (single isomer, unassigned)	Human in vitro Clint (mL/min/g liver)	4.2

I: Cc1ccccc1[C@H]1[C@@H]2CCC(=O)N2CCN1C(=O)N(C)[C@H](C)c1cc(C(F)(F)F)cc(C(F)(F)F)c1 (single isomer, unassigned)
II: Cc1ccccc1[C@H]1[C@H]2CCC(=O)N2CCN1C(=O)N(C)[C@H](C)c1cc(C(F)(F)F)cc(C(F)(F)F)c1 (single isomer, unassigned)
Hi! Which is lower in terms of Human in vitro Clint (mL/min/g liver), the first one I or the second one II ? Kindly give the label for the entry you pick.
I
